SYSTEM TESTED: T1, human CTLA-4-Fc (Chimerigen) (human, UniProt P16410 36-161; P01857 99-330 = IgG part, limits assumed)
T1 construct: extracellular domain;domain: Fc portion; Bought protein; also called hCTLA-4-Fc; huCTLA-4-Ig
T1 sequence (P16410 other isoform, or with tags, fused parts or gaps mutant limits assumed): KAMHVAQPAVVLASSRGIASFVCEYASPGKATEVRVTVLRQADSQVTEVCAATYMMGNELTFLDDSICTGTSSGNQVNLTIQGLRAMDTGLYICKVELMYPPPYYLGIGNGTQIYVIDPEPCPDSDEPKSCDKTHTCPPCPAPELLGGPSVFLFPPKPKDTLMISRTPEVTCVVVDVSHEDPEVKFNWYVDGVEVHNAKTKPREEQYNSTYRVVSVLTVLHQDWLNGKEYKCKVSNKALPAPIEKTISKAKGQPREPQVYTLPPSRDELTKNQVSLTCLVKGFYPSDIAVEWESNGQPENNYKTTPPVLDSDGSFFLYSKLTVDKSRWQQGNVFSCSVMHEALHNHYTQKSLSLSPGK
ASSAY: SPR as in Example 9
ENDPOINT LABEL: pKd
Kindly note that pKd refers to -log10 of the concentration in mol/L and answer with the value alone.

BINDER: hNGAL mutein S140.1-F09 (designed binder, tagged entry not tied to the name; not shown: N-terminal T7 detection tag from vector phNGAL37; C-terminal Strep-tag II from vector phNGAL37) QDSTSDLIPAPPLSKVPLQQNFQDNQFHGKWYVVGLAGNRILRDDQHPMNMYATIYELKEDKSYNVTSVISSHKKCEYTIATFVPGSQPGEFTLGNIKSYGDKTSYLVRVVSTNYNQYAVVFFKLAEDNAEFFAITIYGRTKELASELKENFIRFSKSLGLPENHIVFPVPIDQCIDG
ENDPOINT LABEL: pKd
NUMERIC RESULT: 8.11
//
BINDER: hNGAL mutein S140.3-P07 (designed binder, tagged entry not tied to the name; not shown: N-terminal T7 detection tag from vector phNGAL37; C-terminal Strep-tag II from vector phNGAL37) QDSTSDLIPAPPLSKVPLQQNFQDNQFHGKWYVVGLAGNRILRDDQHPMNMYATIYELKEDKSYNVTSVIFPHKKCEYTIATFVPGSQPGEFTLGNIKSYGDKTSYLVRVVSTDYNQYAVVFFKLAEDDAEFFAITIYGRTKELASELKENFIRFSKSLGLPENHIVFPVPIDQCIDG
ENDPOINT LABEL: pKd
NUMERIC RESULT: 7.54
//
BINDER: hNGAL mutein S140.4-O10 (designed binder, also called Onc I-002) QDSTSDLIPAPPLSKVPLQQNFQDNQFHGKWYVVGLAGNRILRDDQHPMNMYATIYELKEDKSYNVTSVISSHKKCEYTIATFVPGSQPGEFTLGNIKSYGDKTSYLVRVVSTDYNQYAVVFFKLAEDNAEFFAITIYGRTKELASELKENFIRFSKSLGLPENHIVFPVPIDQCIDG
ENDPOINT LABEL: pKd
NUMERIC RESULT: 8.08

Now consider a different binder.
-- ask Consider the binder shown here: hNGAL mutein S140.2-P24 (designed binder, tagged entry not tied to the name; not shown: N-terminal T7 detection tag from vector phNGAL37; C-terminal Strep-tag II from vector phNGAL37) QDSTSDLIPAPPLSKVPLQQNFQDNQFHGKWYVVGLAGNRILRDDQHPMDMYATIYELKEDKSYNVTSVISSHKKCEYTIATFVPGSQPGEFTLGNIKSYGDKTSYLVRVVSTDYSQYAVVFFKLAEDNAEFFAITIYGRTKELASELKENFIRFSKSLGLPENHIVFPVPIDQCIDG What is its recorded pKd?
-- reply 7.70
